Molecular target: Muscle, skeletal receptor tyrosine-protein kinase (Homo sapiens) (UniProt O15146);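 also: values are mean inhibition of MuSK from the GSK PKIS kinase screening panel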
Sequence (O15146 whole entry): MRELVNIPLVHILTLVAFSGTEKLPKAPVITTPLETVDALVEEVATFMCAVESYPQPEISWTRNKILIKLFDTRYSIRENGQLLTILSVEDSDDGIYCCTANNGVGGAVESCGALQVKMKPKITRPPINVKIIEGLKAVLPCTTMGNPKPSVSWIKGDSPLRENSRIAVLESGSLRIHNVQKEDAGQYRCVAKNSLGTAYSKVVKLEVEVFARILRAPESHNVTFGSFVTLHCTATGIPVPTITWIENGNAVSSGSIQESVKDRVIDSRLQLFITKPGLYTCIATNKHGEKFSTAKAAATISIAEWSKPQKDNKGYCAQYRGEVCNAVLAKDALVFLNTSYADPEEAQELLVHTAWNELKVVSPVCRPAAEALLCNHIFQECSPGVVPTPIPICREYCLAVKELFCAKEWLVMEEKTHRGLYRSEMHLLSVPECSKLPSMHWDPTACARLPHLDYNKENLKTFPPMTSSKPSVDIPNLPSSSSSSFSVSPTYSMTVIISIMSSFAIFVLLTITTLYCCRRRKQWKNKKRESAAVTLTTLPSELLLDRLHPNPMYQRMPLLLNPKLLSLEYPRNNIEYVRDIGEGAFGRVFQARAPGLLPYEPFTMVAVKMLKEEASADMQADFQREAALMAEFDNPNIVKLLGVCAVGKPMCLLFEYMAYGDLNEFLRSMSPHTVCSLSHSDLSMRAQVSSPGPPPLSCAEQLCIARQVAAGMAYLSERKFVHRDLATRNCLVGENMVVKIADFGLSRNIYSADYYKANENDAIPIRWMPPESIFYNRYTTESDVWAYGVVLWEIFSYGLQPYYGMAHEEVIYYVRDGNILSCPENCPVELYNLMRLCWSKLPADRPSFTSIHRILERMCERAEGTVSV
Conditions: at 0.1 µM
assay_metric: inhibition (%)
Write the value in % as a bare number.

molecule: Cc1ccc(-c2cc3c(NC(=O)C4CC4)ncnc3o2)cc1
inhibition / %: 2.65

I have this molecule here, `NS(=O)(=O)c1ccc(N/N=C2\C(=O)Nc3cccc(CCc4ccncc4)c32)cc1` , and I need its recorded inhibition.
12.2

Proceed to `Fc1ccc(Nc2nccc(-c3c(-c4ccc(C(F)(F)F)cc4)nn4ncccc34)n2)cc1F`
2.34

Proceed to `CS(=O)(=O)CCNCc1ccc(-c2ccc3ncnc(Nc4ccc(OCc5cccc(C(F)(F)F)c5)cc4)c3c2)o1`
2.66

Proceed to `O=C(O[C@H]1CN[C@H](C#Cc2cc3ncnc(Nc4ccc5c(ccn5Cc5cc(F)ccc5F)c4)c3s2)C1)N1CCOCC1`
2.87

Proceed to `COc1cccc(Nc2nccc(-c3cnn4ncccc34)n2)c1`
2.83

Proceed to `COc1ccc(Nc2ncc(-c3ccccc3)o2)cc1OC`
2.37

Proceed to `Cc1nnc(-c2cccc(-c3ccc(C(=O)NCC4CC4)cc3)c2)o1`
2.8

Proceed to `OCCCNc1nccc(-c2c(-c3ccc(F)cc3)nn3cc(C(F)(F)F)ccc23)n1`
2.96

Proceed to `NC(=O)c1ccc2c(-c3ccnc(NCCCO)n3)c(-c3ccc(F)cc3)nn2c1`
3.34

Proceed to CC1=C(C(=O)Nc2ccc3[nH]ncc3c2)C(c2ccc(F)cc2)N=C(c2ccc(C(F)(F)F)nc2)N1 (stereo unspecified)
2.32

###

Target: Serine/threonine-protein kinase Nek9 (Homo sapiens) (UniProt Q8TD19);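 also: each value is a mean percent inhibition of NEK9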
Sequence (Q8TD19 whole entry): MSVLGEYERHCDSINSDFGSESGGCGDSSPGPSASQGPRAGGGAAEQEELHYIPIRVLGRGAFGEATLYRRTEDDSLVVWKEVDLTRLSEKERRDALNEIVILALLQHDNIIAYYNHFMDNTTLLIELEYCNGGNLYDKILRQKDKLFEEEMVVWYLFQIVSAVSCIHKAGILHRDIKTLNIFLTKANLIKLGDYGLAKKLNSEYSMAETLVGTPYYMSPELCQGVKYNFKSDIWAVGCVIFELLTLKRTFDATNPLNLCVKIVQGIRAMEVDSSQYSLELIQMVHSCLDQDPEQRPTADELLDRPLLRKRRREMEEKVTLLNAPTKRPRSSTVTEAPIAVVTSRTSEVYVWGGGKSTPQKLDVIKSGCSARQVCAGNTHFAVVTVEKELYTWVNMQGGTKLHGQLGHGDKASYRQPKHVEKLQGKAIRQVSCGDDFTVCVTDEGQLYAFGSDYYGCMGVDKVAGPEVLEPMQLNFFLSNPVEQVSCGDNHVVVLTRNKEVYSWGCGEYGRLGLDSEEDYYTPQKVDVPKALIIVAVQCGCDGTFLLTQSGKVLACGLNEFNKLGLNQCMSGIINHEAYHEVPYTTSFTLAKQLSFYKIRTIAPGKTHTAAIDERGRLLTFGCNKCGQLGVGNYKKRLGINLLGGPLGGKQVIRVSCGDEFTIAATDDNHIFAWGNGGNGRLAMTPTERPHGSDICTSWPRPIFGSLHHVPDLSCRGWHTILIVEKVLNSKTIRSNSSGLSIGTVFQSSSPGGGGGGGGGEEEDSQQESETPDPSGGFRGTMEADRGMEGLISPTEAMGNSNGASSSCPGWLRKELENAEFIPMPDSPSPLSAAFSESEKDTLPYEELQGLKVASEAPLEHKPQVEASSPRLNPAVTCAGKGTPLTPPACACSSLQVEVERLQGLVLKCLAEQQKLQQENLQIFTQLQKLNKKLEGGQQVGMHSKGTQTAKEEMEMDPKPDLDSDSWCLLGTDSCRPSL
Conditions: at 1 µM
inhibition listing for selected molecules.
Write the value in % as a bare number.

Some solved entries appear below for comparison.
molecule: NS(=O)(=O)c1ccc(N/N=C2\C(=O)Nc3cccc(CCc4ccncc4)c32)cc1
assay_metric: inhibition
result_units: %
observed_measurement: -6.07
//
molecule: COc1cccc(Nc2nccc(-c3cnn4ncccc34)n2)c1
assay_metric: inhibition
result_units: %
observed_measurement: 26.1
//
molecule: CCn1c(-c2nonc2N)nc2cncc(C(=O)NCCNC)c21
assay_metric: inhibition
result_units: %
observed_measurement: 11.9
//
molecule: COc1ccc(Nc2ncc(-c3ccccc3)o2)cc1OC
assay_metric: inhibition
result_units: %
observed_measurement: 9.31
//
molecule: Cc1ccc(-c2cc3c(NC(=O)C4CC4)ncnc3o2)cc1
assay_metric: inhibition
result_units: %
observed_measurement: 4.87

I have this molecule here, `Cc1nnc(-c2cccc(-c3ccc(C(=O)NCC4CC4)cc3)c2)o1` , and I need its recorded inhibition.
7.69

Proceed to `COc1ccc2ncn(-c3cc(O[C@H](C)c4ccccc4C(F)(F)F)c(C(N)=O)s3)c2c1`
83.6

Proceed to `N#Cc1cccc(Nc2ncc(-c3ccccc3)o2)c1`
4.83

Proceed to `Cn1c(-c2nonc2N)nc2cnccc21`
10.4

Proceed to `Cc1cc(O)cc(C)c1/C=C/c1cncc(C(=O)OC(C)(C)C)c1`
2.6

Proceed to `CCS(=O)(=O)c1ccc(OC)c(Nc2ncc(-c3cccc(C(C)=O)c3)o2)c1`
3.45

###

Target: Serine/threonine-protein kinase SIK1 (Homo sapiens) (UniProt P57059);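 also: mean inhibition value from the GSK PKIS profiling set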
Sequence (P57059 whole entry): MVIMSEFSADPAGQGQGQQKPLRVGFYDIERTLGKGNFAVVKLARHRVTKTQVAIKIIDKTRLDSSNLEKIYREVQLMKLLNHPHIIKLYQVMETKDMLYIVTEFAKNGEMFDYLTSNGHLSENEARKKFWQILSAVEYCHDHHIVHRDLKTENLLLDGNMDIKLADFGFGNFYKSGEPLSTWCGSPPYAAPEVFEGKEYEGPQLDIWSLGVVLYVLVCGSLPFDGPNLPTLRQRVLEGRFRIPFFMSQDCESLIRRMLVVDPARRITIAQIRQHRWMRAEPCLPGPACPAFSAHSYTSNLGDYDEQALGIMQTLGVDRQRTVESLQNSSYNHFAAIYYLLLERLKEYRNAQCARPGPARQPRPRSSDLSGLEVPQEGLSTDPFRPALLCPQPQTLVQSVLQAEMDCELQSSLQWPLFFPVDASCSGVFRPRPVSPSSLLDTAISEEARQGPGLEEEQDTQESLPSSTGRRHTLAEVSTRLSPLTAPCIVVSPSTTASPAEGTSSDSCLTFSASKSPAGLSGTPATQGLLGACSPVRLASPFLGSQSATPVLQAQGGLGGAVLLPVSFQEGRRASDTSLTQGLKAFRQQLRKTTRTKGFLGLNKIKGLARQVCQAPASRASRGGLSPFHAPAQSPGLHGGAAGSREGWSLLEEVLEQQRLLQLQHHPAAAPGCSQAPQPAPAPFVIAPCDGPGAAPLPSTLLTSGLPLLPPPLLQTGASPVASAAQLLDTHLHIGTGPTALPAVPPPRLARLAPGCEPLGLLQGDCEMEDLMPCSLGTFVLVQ
Details: at 1 µM
So basically every entry gets a class from its inhibition, ranges being range 1: < 8%; range 2: ≥ 8% and < 9%; range 3: ≥ 9%

Example entries begin here.
structure_smiles_string: COc1cc2c(cc1Nc1nc(Nc3cccc(F)c3C(N)=O)c3cc[nH]c3n1)N(C(=O)CN1CCN(C(C)C)CC1)CC2
group: range 2
--
structure_smiles_string: CS(=O)(=O)Nc1ccc(-c2ccc3c(NC(=O)C4CC4)n[nH]c3c2)cc1
group: range 1
--
structure_smiles_string: NS(=O)(=O)c1ccc(N/N=C2\C(=O)Nc3ccc(C(=O)NCc4ccncc4)cc32)cc1
group: range 3
--
structure_smiles_string: N#Cc1cccc(Nc2ncc(-c3ccccc3)o2)c1
group: range 1

Which bin, given its inhibition, does `N#Cc1ccc2c(-c3ccnc(NC4CC4)n3)c(-c3ccc(F)cc3)nn2c1` occupy?
range 3

###

Target: Phosphorylase b kinase gamma catalytic chain, skeletal muscle/heart isoform (Homo sapiens) (UniProt Q16816);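 also: values are averaged percent inhibition of PHKG1 kinase activity, from the GSK PKIS inhibitor-set screen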
Sequence (Q16816 whole entry, looked up, canonical isoform): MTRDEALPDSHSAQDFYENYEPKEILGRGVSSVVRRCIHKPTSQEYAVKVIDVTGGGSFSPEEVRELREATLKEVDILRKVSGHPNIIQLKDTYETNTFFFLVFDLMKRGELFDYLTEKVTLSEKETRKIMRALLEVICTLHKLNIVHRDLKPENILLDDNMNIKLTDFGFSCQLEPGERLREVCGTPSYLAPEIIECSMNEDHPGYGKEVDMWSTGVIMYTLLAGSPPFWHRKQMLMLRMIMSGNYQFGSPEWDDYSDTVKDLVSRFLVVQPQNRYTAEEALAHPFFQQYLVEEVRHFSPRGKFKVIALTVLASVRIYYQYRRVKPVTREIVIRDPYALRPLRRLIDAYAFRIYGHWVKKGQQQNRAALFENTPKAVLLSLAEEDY
Details: at 0.1 µM
inhibition listing for selected compounds.

Some solved entries appear below for comparison.
structure_smiles_string: CS(=O)(=O)CCNCc1ccoc1-c1ccc2ncnc(Nc3ccc(OCc4ccccc4)cc3)c2c1
inhibition: 2.12%
//
structure_smiles_string: CC(C)c1ccc(-c2cc(-c3c[nH]nc3-c3ccccn3)ccn2)cc1
inhibition: 0.46%
//
structure_smiles_string: Cc1cc(O)cc(C)c1/C=C/c1cncc(C(=O)OC(C)(C)C)c1
inhibition: 3.95%
//
structure_smiles_string: NC(=O)c1ccc2c(-c3ccnc(NCCCO)n3)c(-c3ccc(F)cc3)nn2c1
inhibition: 6.92%
//
structure_smiles_string: Cc1nnc(-c2cccc(-c3ccc(C(=O)NCC4CC4)cc3)c2)o1
inhibition: 3.57%

Please find the next compound below.
I have this compound here, `N#Cc1ccc2c(-c3ccnc(NC4CC4)n3)c(-c3ccc(F)cc3)nn2c1` , and I need its recorded inhibition.
0.42%

###

Target: Insulin receptor-related protein (Homo sapiens);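 also: each reported figure is the mean of the IRR inhibition readings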
Conditions: at 1 µM
inhibition listing for selected compounds.
Write the value in % as a bare number.

structure_smiles_string: COC(=O)Nc1nc2cc(Oc3ccc(NC(=O)Nc4ccccc4)cc3)ccc2[nH]1
inhibition, %: 1.1
//
structure_smiles_string: COc1cc2c(cc1Nc1nc(Nc3cccc(F)c3C(N)=O)c3cc[nH]c3n1)N(C(=O)CN1CCN(C(C)C)CC1)CC2
inhibition, %: 44.3
//
structure_smiles_string: O=C(O[C@H]1CN[C@H](C#Cc2cc3ncnc(Nc4ccc5c(cnn5Cc5ccccc5)c4)c3s2)C1)N1CCOCC1
inhibition, %: -2.28

Please find the next compound below.
I have this compound here, `c1ccc(-c2n[nH]cc2-c2ccnc(-c3ccc(OCCn4ccnc4)cc3)c2)nc1` , and I need its recorded inhibition.
-0.28

###

Target: Tyrosine-protein kinase BTK (Homo sapiens) (UniProt Q06187);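 also: values are mean percent inhibition of BTK across replicate measurements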
Sequence (Q06187 whole entry): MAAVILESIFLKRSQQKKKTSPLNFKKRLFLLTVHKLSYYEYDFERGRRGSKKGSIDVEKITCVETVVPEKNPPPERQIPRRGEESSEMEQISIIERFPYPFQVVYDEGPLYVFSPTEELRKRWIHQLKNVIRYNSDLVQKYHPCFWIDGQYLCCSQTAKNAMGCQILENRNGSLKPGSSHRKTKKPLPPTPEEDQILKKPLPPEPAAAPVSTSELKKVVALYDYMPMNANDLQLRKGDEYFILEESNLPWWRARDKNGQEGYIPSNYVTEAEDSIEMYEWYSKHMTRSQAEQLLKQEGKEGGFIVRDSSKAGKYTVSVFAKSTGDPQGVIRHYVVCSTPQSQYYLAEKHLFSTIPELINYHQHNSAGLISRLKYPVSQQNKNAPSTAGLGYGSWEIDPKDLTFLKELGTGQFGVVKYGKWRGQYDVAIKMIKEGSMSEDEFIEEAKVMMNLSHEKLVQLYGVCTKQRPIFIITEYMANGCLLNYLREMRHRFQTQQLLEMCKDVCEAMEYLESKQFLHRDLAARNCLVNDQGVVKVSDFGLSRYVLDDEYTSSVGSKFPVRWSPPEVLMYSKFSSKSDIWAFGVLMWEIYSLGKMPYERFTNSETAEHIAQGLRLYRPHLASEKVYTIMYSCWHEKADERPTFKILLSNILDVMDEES
Details: at 1 µM
assay_metric: inhibition (%)
Write the value in % as a bare number.

Some solved entries appear below for comparison.
compound: CC1=C(C(=O)Nc2ccc3[nH]nc(C)c3c2)C(c2ccc(C(F)(F)F)cc2)CC(=O)N1 (stereo not given)
result_units: %
inhibition: 2.32

compound: NS(=O)(=O)c1cccc(N/C=C2\C(=O)Nc3ccccc32)c1
result_units: %
inhibition: -0.4

compound: CNC(=O)c1sc(-n2cnc3cc(OC)c(OC)cc32)cc1OCc1ccccc1C(F)(F)F
result_units: %
inhibition: 3.2

compound: CS(=O)(=O)CCNCc1ccoc1-c1ccc2ncnc(Nc3ccc(OCc4ccccc4)cc3)c2c1
result_units: %
inhibition: 0.8

compound: Cc1nnc(-c2cccc(-c3ccc(C(=O)NCC4CC4)cc3)c2)o1
result_units: %
inhibition: 1.05

I have this compound here, `NS(=O)(=O)c1ccc(N/N=C2\C(=O)Nc3cccc(CCc4ccncc4)c32)cc1` , and I need its recorded inhibition.
0.16

Proceed to `O=C(O[C@H]1CN[C@H](C#Cc2cc3ncnc(Nc4ccc5c(cnn5Cc5ccccc5)c4)c3s2)C1)N1CCOCC1`
1.05

Proceed to `CN1CCC(n2cnc(-c3ccc(F)cc3)c2-c2ccnc(NCCO)n2)CC1`
0.09

###

inhibition listing for selected compounds.
Target: Serine/threonine-protein kinase PAK 3 (Homo sapiens);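 also: mean percent inhibition of PAK3, measured in a screen of the GSK published kinase inhibitor set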
Settings: at 0.1 µM
Write the value in % as a bare number.

Tell me reported inhibition for `Fc1ccc(Nc2nccc(-c3c(-c4ccc(C(F)(F)F)cc4)nn4ncccc34)n2)cc1F` , tested with Serine/threonine-protein kinase PAK 3 (Homo sapiens).
3.13

Proceed to `c1ccc(-c2n[nH]cc2-c2ccnc(-c3ccc(OCCn4ccnc4)cc3)c2)nc1`
-0.22

Proceed to `Cn1c(-c2nonc2N)nc2cnccc21`
3.23

###

Biological target: Maternal embryonic leucine zipper kinase (Homo sapiens) (UniProt Q14680);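 also: each value is the mean inhibition of MELK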
Sequence (Q14680 whole entry, looked up): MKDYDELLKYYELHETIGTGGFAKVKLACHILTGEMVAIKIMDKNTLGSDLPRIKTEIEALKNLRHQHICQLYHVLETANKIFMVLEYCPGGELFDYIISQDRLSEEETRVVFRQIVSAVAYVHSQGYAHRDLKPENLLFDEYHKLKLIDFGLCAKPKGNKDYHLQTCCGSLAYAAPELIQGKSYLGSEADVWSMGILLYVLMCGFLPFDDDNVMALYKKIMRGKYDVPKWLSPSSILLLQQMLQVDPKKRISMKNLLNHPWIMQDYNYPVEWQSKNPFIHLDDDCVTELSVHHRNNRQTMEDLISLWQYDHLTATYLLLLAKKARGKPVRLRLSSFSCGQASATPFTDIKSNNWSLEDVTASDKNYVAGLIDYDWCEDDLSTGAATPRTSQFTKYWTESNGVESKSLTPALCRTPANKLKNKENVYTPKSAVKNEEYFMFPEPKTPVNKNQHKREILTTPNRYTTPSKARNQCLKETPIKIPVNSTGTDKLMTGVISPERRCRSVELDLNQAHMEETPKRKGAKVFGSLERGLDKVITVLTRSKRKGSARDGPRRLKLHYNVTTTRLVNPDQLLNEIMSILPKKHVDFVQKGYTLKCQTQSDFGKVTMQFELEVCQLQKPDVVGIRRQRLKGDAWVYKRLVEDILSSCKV
Conditions: at 1 µM
inhibition listing for selected compounds.
Write the value in % as a bare number.

structure_smiles_string: CS(=O)(=O)CCNCc1ccoc1-c1ccc2ncnc(Nc3ccc(OCc4ccccc4)cc3)c2c1
inhibition, %: -0.61

structure_smiles_string: c1cnn2ncc(-c3ccnc(NCCCN4CCOCC4)n3)c2c1
inhibition, %: 11.9

structure_smiles_string: CS(=O)(=O)CCNCc1ccc(-c2ccc3ncnc(Nc4ccc(OCc5cccc(C(F)(F)F)c5)cc4)c3c2)o1
inhibition, %: 11.4

structure_smiles_string: CCCNc1cccc(-n2ncc3c(N/N=C/c4ccncc4)ncnc32)c1
inhibition, %: 3.93

Please find the next compound below.
I have this compound here, `O=C(Nc1n[nH]c2nnc(-c3cccnc3)cc12)C1CC1` , and I need its recorded inhibition.
1.48

###

inhibition listing for selected molecules.
Biological target: Serine/threonine-protein kinase pim-1 (Homo sapiens) (UniProt P11309);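 also: reported figures are mean percent inhibition of PIM1 kinase activity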
Sequence (P11309 whole entry, looked up): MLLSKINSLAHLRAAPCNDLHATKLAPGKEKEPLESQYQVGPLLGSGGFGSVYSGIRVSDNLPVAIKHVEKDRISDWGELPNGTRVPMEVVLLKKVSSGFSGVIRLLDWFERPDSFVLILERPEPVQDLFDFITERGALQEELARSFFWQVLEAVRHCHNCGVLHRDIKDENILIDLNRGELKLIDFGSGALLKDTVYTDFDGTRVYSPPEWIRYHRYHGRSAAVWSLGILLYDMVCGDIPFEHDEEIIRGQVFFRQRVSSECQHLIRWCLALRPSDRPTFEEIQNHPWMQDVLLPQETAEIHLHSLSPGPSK
Conditions: at 1 µM
Write the value in % as a bare number.

Some solved entries appear below for comparison.
molecule: CC1=C(C(=O)Nc2ccc3[nH]ncc3c2)C(c2ccc(F)cc2)N=C(c2ccc(C(F)(F)F)nc2)N1 (centres undefined)
inhibition (%): -0.09

molecule: CN(c1ccc(NC(=O)NCCN2CCOCC2)cc1)c1ccnc(Nc2ccc(CS(C)(=O)=O)cc2)n1
inhibition (%): -0.22

molecule: CC1=C(C(=O)Nc2ccc3[nH]nc(C)c3c2)C(c2ccc(C(F)(F)F)cc2)CC(=O)N1 (centres undefined)
inhibition (%): 0

molecule: COC(=O)Nc1nc2ccc(Oc3ccc(NC(=O)Nc4cc(C(F)(F)F)ccc4F)cc3)cc2s1
inhibition (%): 1.19

molecule: COc1cccc(-n2ncc3c(N/N=C/c4ccc(C(=O)NCCN(C)C)cc4)ncnc32)c1
inhibition (%): 8.23

molecule: N#Cc1cccc(Nc2ncc(-c3ccccc3)o2)c1
inhibition (%): 0.29

I have this molecule here, `O=C(O[C@H]1CN[C@H](C#Cc2cc3ncnc(Nc4ccc(OCc5cccc(F)c5)c(Cl)c4)c3s2)C1)N1CCOCC1` , and I need its recorded inhibition.
0.58

Proceed to `COc1ccc2ncn(-c3cc(O[C@H](C)c4ccccc4C(F)(F)F)c(C(N)=O)s3)c2c1`
7.56

Proceed to `CC1(C)CC(n2cnc(-c3ccc(F)cc3)c2-c2ccnc(N)n2)CC(C)(C)N1`
1.49
